Sourced from paper PMC8151276

Measured NanoBRET Fold Response accompanies every entry in the list below.
biological target: CCR1 (Homo sapiens, UniProt P32246); construct: purchased Promega (in-house HiBiT-GPCR construct library, NanoBRET); test: NanoBRET screen HiBiT-CCR1 in HEK293; format: binding; settings: CCR1; tracer 0.1μM
Sequence (P32246 whole entry): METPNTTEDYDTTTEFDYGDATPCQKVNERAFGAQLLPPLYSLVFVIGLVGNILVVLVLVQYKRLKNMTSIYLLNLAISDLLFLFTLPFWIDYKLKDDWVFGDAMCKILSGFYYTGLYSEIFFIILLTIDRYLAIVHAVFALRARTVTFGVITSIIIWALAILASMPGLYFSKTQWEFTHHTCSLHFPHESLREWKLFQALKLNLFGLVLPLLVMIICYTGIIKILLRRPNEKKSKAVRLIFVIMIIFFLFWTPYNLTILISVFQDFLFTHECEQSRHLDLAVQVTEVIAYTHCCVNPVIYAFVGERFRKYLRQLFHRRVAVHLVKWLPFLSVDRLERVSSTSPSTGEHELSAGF
Respond with the number and no other words.

1) Cc1cc2c(s1)Nc1ccccc1N=C2N1CCN(CCCNC(=O)CCOCCOCCOCCOCCNC(=O)CCc2ccc3n2[B-](F)(F)[N+]2=C(c4ccc[nH]4)C=CC2=C3)CC1: 1.02
2) CCCn1c(=O)c2[nH]c(-c3ccc(OCC(=O)NCCNC(=O)CCOCCNC(=O)c4ccc(CNC(=O)CCc5ccc6n5[B-](F)(F)[N+]5=C(c7ccc[nH]7)C=CC5=C6)cc4)cc3)nc2n(CCC)c1=O: 0.83
3) O=C(CCOCCOCCOCCOCCNC(=O)CCc1ccc2n1[B-](F)(F)[N+]1=C(c3ccc[nH]3)C=CC1=C2)NCCCN1CCN(C2=Nc3ccccc3Oc3ccc(Cl)cc32)CC1: 1.00
4) CC(C)N(CC[C@H](c1ccccc1)c1cc(CCNC(=O)c2ccc(CNC(=O)CCc3ccc4n3[B-](F)(F)[N+]3=C(c5ccc[nH]5)C=CC3=C4)cc2)ccc1O)C(C)C: 1.09

Given the compound `COc1ccccc1N1CCN(CCCCN2C(=O)c3ccc(CNC(=O)CCOCCNC(=O)c4ccc(CNC(=O)CCc5ccc6n5[B-](F)(F)[N+]5=C(c7ccc[nH]7)C=CC5=C6)cc4)cc3C2=O)CC1` , what is its reported NanoBRET Fold Response?
1.04

----------
target: RXFP4 (Homo sapiens); construct: purchased Promega (in-house HiBiT-GPCR construct library, NanoBRET); test: NanoBRET screen HiBiT-RXFP4 in HEK293; type: binding; settings: RXFP4; tracer 0.1μM
Sequence (Q8TDU9 whole entry): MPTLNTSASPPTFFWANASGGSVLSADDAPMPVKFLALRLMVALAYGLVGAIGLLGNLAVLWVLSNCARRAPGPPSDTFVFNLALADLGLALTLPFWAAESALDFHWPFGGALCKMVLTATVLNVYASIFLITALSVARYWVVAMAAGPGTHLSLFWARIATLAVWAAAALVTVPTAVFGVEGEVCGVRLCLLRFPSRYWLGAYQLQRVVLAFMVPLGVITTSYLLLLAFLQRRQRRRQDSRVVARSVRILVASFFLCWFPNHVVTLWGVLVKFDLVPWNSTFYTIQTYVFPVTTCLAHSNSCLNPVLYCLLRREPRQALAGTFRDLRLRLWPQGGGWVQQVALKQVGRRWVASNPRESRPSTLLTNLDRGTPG
Measured NanoBRET Fold Response accompanies every entry in the list below.
Respond with the number and no other words.

As a guide, the following entries are already answered.
1. O=C(CCOCCOCCOCCOCCNC(=O)CCc1ccc2n1[B-](F)(F)[N+]1=C(c3ccc[nH]3)C=CC1=C2)NCCCN1CCN(C2=Nc3ccccc3Oc3ccc(Cl)cc32)CC1 [Loxapine-a-2-NB590]: 1.01
2. CCCn1c(=O)c2[nH]c(-c3ccc(OCC(=O)NCCNC(=O)CCOCCNC(=O)c4ccc(CNC(=O)CCc5ccc6n5[B-](F)(F)[N+]5=C(c7ccc[nH]7)C=CC5=C6)cc4)cc3)nc2n(CCC)c1=O [XAC-3-NB590]: 1.00
3. COc1ccccc1N1CCN(CCCCN2C(=O)c3ccc(CNC(=O)CCOCCNC(=O)c4ccc(CNC(=O)CCc5ccc6n5[B-](F)(F)[N+]5=C(c7ccc[nH]7)C=CC5=C6)cc4)cc3C2=O)CC1 [NAN-190-3-NB590]: 0.93
4. CC(C)N(CC[C@H](c1ccccc1)c1cc(CCNC(=O)c2ccc(CNC(=O)CCc3ccc4n3[B-](F)(F)[N+]3=C(c5ccc[nH]5)C=CC3=C4)cc2)ccc1O)C(C)C [Tolterodine-BZ-NB590]: 1.08

Tell me reported NanoBRET Fold Response for O=C(CCc1ccc2n1[B-](F)(F)[N+]1=C(c3ccc[nH]3)C=CC1=C2)NCc1ccc(C(=O)NCCOCCC(=O)N[C@@H]2CC[C@@]3(O)[C@H]4Cc5ccc(O)c6c5[C@@]3(CCN4CC3CC3)[C@H]2O6)cc1 [Naltrexone-3-NB590] , tested with RXFP4 (Homo sapiens).
0.98

Tell me reported NanoBRET Fold Response for O=C(CCc1ccc2n1[B-](F)(F)[N+]1=C(c3ccc[nH]3)C=CC1=C2)NCCOCCOCCNC(=O)OCCOCCN1CCN(C2=Nc3ccccc3Sc3ccccc32)CC1 [Quetiapine-a-2-NB590] , tested with RXFP4 (Homo sapiens).
1.02

Tell me reported NanoBRET Fold Response for CC(C)N(CC[C@H](c1ccccc1)c1cc(CCNC(=O)CCOCCOCCOCCOCCNC(=O)CCc2ccc3n2[B-](F)(F)[N+]2=C(c4ccc[nH]4)C=CC2=C3)ccc1O)C(C)C [Tolterodine-2-NB590] , tested with RXFP4 (Homo sapiens).
0.96

Tell me reported NanoBRET Fold Response for N#CN=C(NCCCOc1cccc(CN2CCCCC2)c1)NCCNC(=O)CCOCCOCCOCCOCCNC(=O)CCc1ccc2n1[B-](F)(F)[N+]1=C(c3ccc[nH]3)C=CC1=C2 [Aminopotentidine-2-NB590] , tested with RXFP4 (Homo sapiens).
1.02

Tell me reported NanoBRET Fold Response for Cc1cc2c(s1)Nc1ccccc1N=C2N1CCN(CCCNC(=O)CCOCCOCCOCCOCCNC(=O)CCc2ccc3n2[B-](F)(F)[N+]2=C(c4ccc[nH]4)C=CC2=C3)CC1 [Olanzapine-a-2-NB590] , tested with RXFP4 (Homo sapiens).
0.95

Tell me reported NanoBRET Fold Response for Cc1nc2n(c(=O)c1CCN1CCC(c3noc4cc(F)ccc34)CC1)CCCC2OC(=O)NCCOCCOCCOCCOCCNC(=O)CCc1ccc2n1[B-](F)(F)[N+]1=C(c3ccc[nH]3)C=CC1=C2 (stereo not shown) [Risperidone-2-NB590] , tested with RXFP4 (Homo sapiens).
0.96

----------
target: LGR4 (Homo sapiens, UniProt Q9BXB1); construct: purchased Promega (in-house HiBiT-GPCR construct library, NanoBRET); assay: NanoBRET screen HiBiT-LGR4 in HEK293; type: binding; conditions: LGR4; tracer 0.1μM
Sequence (Q9BXB1 25-951): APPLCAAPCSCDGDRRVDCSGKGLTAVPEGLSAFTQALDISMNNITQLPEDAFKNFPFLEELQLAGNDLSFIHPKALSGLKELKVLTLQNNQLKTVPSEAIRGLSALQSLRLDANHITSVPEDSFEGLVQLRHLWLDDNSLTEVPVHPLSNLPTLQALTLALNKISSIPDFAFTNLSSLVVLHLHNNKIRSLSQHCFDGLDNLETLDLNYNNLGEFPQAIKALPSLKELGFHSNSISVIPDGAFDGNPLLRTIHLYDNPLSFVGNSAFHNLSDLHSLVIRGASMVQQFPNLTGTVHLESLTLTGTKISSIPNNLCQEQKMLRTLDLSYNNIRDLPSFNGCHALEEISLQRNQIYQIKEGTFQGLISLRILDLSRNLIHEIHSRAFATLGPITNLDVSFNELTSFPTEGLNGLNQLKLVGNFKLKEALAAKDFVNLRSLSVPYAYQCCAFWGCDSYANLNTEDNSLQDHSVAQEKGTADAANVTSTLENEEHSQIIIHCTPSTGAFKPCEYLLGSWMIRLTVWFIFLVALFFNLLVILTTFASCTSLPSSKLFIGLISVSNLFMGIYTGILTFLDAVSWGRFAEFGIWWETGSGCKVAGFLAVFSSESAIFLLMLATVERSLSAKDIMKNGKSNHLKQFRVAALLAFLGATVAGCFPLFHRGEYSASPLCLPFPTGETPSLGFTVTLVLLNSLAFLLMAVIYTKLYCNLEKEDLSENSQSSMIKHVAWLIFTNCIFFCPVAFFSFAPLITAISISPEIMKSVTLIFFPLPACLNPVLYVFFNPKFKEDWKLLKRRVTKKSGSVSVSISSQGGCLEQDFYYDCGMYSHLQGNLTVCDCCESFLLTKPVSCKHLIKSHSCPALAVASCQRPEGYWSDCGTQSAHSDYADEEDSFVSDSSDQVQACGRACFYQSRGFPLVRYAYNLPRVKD
Mark Condition met only when NanoBRET Fold Response stays strictly below 1. Values equal to the cut-off are Condition not met.

Consider the worked cases shown below.
1. CC(C)N(CC[C@H](c1ccccc1)c1cc(CCNC(=O)CCOCCOCCOCCOCCNC(=O)CCc2ccc3n2[B-](F)(F)[N+]2=C(c4ccc[nH]4)C=CC2=C3)ccc1O)C(C)C: Condition not met
2. COc1ccccc1N1CCN(CCCCN2C(=O)c3ccc(CNC(=O)CCOCCNC(=O)c4ccc(CNC(=O)CCc5ccc6n5[B-](F)(F)[N+]5=C(c7ccc[nH]7)C=CC5=C6)cc4)cc3C2=O)CC1: Condition met

Please indicate whether the reported NanoBRET Fold Response of Cc1nc2n(c(=O)c1CCN1CCC(c3noc4cc(F)ccc34)CC1)CCCC2OC(=O)NCCOCCOCCOCCOCCNC(=O)CCc1ccc2n1[B-](F)(F)[N+]1=C(c3ccc[nH]3)C=CC1=C2 (stereo not drawn) is strictly below 1.
Condition met

----------
biological target: ADORA2A (Homo sapiens); construct: purchased Promega (in-house HiBiT-GPCR construct library, NanoBRET); experiment: NanoBRET screen HiBiT-ADORA2A in HEK293; type: binding; details: ADORA2A; tracer 0.1μM
Sequence (P29274 whole entry): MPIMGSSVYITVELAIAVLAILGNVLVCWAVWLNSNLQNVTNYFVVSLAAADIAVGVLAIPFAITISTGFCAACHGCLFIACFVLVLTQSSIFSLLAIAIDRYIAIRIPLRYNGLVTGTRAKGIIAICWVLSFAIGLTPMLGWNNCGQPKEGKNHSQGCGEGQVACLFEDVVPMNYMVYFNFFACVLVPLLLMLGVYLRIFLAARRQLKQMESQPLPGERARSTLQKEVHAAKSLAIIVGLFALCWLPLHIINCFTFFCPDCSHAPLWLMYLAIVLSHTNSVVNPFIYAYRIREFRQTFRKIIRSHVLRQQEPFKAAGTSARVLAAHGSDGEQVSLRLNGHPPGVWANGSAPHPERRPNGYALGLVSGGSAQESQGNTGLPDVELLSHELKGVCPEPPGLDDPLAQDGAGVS
Measured NanoBRET Fold Response accompanies every entry in the list below.

1. N#CN=C(NCCCOc1cccc(CN2CCCCC2)c1)NCCNC(=O)CCOCCOCCOCCOCCNC(=O)CCc1ccc2n1[B-](F)(F)[N+]1=C(c3ccc[nH]3)C=CC1=C2: 1.05
2. O=C(CCc1ccc2n1[B-](F)(F)[N+]1=C(c3ccc[nH]3)C=CC1=C2)NCc1ccc(C(=O)NCCOCCC(=O)N[C@@H]2CC[C@@]3(O)[C@H]4Cc5ccc(O)c6c5[C@@]3(CCN4CC3CC3)[C@H]2O6)cc1 [Naltrexone-3-NB590]: 1.08
3. CCCn1c(=O)c2[nH]c(-c3ccc(OCC(=O)NCCNC(=O)CCOCCNC(=O)c4ccc(CNC(=O)CCc5ccc6n5[B-](F)(F)[N+]5=C(c7ccc[nH]7)C=CC5=C6)cc4)cc3)nc2n(CCC)c1=O: 7.87

Given the compound `CC(C)N(CC[C@H](c1ccccc1)c1cc(CCNC(=O)CCOCCOCCOCCOCCNC(=O)CCc2ccc3n2[B-](F)(F)[N+]2=C(c4ccc[nH]4)C=CC2=C3)ccc1O)C(C)C` , what is its reported NanoBRET Fold Response?
1.35

Given the compound `O=C(CCOCCOCCOCCOCCNC(=O)CCc1ccc2n1[B-](F)(F)[N+]1=C(c3ccc[nH]3)C=CC1=C2)NCCCN1CCN(C2=Nc3ccccc3Oc3ccc(Cl)cc32)CC1` , what is its reported NanoBRET Fold Response?
1.08

----------
target: SSTR2 (Homo sapiens); construct: purchased Promega (in-house HiBiT-GPCR construct library, NanoBRET); experiment: NanoBRET screen HiBiT-SSTR2 in HEK293; type: binding; conditions: SSTR2; tracer 1μM
Sequence (P30874 whole entry): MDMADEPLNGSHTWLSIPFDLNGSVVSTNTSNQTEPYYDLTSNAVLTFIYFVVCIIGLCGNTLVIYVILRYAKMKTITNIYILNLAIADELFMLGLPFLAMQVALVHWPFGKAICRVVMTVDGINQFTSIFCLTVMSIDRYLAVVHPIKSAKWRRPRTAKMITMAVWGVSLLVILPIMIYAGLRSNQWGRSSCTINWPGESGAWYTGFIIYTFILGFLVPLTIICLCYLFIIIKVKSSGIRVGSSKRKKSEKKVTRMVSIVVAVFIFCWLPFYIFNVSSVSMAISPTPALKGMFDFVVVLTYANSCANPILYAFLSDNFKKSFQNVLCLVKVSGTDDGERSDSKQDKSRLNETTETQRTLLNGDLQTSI
Measure name: NanoBRET Fold Response
Respond with the number and no other words.

As a guide, the following entries are already answered.
1) COc1ccccc1N1CCN(CCCCN2C(=O)c3ccc(CNC(=O)CCOCCNC(=O)c4ccc(CNC(=O)CCc5ccc6n5[B-](F)(F)[N+]5=C(c7ccc[nH]7)C=CC5=C6)cc4)cc3C2=O)CC1: 1.10
2) Cc1nc2n(c(=O)c1CCN1CCC(c3noc4cc(F)ccc34)CC1)CCCC2OC(=O)NCCOCCOCCOCCOCCNC(=O)CCc1ccc2n1[B-](F)(F)[N+]1=C(c3ccc[nH]3)C=CC1=C2 (centres unmarked): 1.01
3) CCCn1c(=O)c2[nH]c(-c3ccc(OCC(=O)NCCNC(=O)CCOCCNC(=O)c4ccc(CNC(=O)CCc5ccc6n5[B-](F)(F)[N+]5=C(c7ccc[nH]7)C=CC5=C6)cc4)cc3)nc2n(CCC)c1=O: 1.06
4) Cc1cc2c(s1)Nc1ccccc1N=C2N1CCN(CCCNC(=O)CCOCCOCCOCCOCCNC(=O)CCc2ccc3n2[B-](F)(F)[N+]2=C(c4ccc[nH]4)C=CC2=C3)CC1: 0.96

Could you now consider this next molecule?
Given the molecule `CC(C)N(CC[C@H](c1ccccc1)c1cc(CCNC(=O)CCOCCOCCOCCOCCNC(=O)CCc2ccc3n2[B-](F)(F)[N+]2=C(c4ccc[nH]4)C=CC2=C3)ccc1O)C(C)C` , what is its reported NanoBRET Fold Response?
1.00
